Where these numbers come from: patent US8492374B2

Target: FLT-3 kinase (Homo sapiens, UniProt P36888)
Construct: human FLT-3 (Arg571-Ser993); GST (N); purchased Cell Signaling Technology HTScan FLT-3 Kinase Assay Kit; host or cells: baculovirus expression system
Experiment: FLT-3 kinase DELFIA assay (HTScan FLT-3 Kinase Assay Kit)
Assay type: biochemical
Conditions: 0.1 uM compound, 20 uM ATP
Quick rule for you: inhibition at 0.1 µM at 20% or higher means Yes, lower means No.

Before answering, review these 2 worked examples.
Line Notation: CN(C)S(=O)(=O)N1CCCN(c2ccc3[nH]c(-c4c5cccccc-5[nH]c4=O)nc3c2)CC1
System: FLT-3 kinase (Homo sapiens, UniProt P36888)
Label: No

Line Notation: CN1CCN(c2cc3nc(-c4c5cccccc-5[nH]c4=O)[nH]c3cc2F)CC1
System: FLT-3 kinase (Homo sapiens, UniProt P36888)
Label: Yes

Would you say O=c1[nH]c2cccccc-2c1-c1nc2cc(N3CCCN(CCCF)CC3)ccc2n1CCCF shows inhibition at 0.1 µM at minimum 20%?
No

Ok, now O=c1[nH]c2cccccc-2c1-c1nc2cc(N3CCCN(c4ncccn4)CC3)ccc2[nH]1
No

Next record, please: O=c1[nH]c2cccccc-2c1-c1nc2cc(N3CCCN(CCF)CC3)ccc2[nH]1
Yes

Please give the result for NC(=O)C1CCN(c2ccc3[nH]c(-c4c5cccccc-5[nH]c4=O)nc3c2)CC1 too.
No

Field entry: O=C(Nc1ccc(N2CCCC2)cn1)c1ccc2[nH]c(-c3c4cccccc-4[nH]c3=O)nc2c1
Yes

Same read-out for O=c1[nH]c2cccccc-2c1-c1nc2cc(-n3ccnc3)ccc2[nH]1 ?
Yes

Same lookup for O=c1[nH]c2cccccc-2c1-c1nc2cc(N3CCN(Cc4ccccc4)CC3)ccc2[nH]1 , please.
Yes

Could you do the same for O=c1[nH]c2cccccc-2c1-c1nc2cc(N3CCN(Cc4ccccn4)CC3)ccc2[nH]1 , please?
Yes

Queued: Cc1cc(N2CCCN(c3ccc4[nH]c(-c5c6cccccc-6[nH]c5=O)nc4c3)CC2)nc(N(C)C)n1
No

// query: CN1CCCN(S(=O)(=O)c2ccc3[nH]c(-c4c5cccccc-5[nH]c4=O)nc3c2)CC1
No

Do the same for COc1ccccc1NC(=O)Nc1ccc2[nH]c(-c3c4cccccc-4[nH]c3=O)nc2c1 please
No

And O=c1[nH]c2cccccc-2c1-c1nc2cc(N3CCC(O)CC3)ccc2[nH]1 ?
Yes

And for CCOCC1CCN(c2ccc3[nH]c(-c4c5cccccc-5[nH]c4=O)nc3c2)CC1 ?
No

Please give the result for CCC1CCN(c2ccc3[nH]c(-c4c5cccccc-5[nH]c4=O)nc3c2)CC1 too.
Yes

* * *

Molecular target: c-KIT kinase (Homo sapiens, UniProt P10721)
Construct: human c-KIT (Thr544-Val976); GST (N); purchased Cell Signaling Technology HTScan c-KIT Kinase Assay Kit; host or cells: baculovirus expression system
Sequence (P10721 544-976): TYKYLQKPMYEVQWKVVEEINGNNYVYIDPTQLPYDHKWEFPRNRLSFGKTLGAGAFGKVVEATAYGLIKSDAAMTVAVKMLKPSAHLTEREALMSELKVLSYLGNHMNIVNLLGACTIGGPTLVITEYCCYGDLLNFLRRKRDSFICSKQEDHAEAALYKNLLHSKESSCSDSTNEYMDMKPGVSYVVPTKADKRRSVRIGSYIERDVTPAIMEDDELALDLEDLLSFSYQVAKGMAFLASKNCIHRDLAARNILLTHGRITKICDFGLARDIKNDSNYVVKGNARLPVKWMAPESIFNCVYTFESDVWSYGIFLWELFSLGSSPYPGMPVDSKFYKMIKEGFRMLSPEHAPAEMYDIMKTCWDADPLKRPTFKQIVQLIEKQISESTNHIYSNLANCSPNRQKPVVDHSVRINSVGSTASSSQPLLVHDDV
Assay: c-KIT kinase DELFIA assay (HTScan c-KIT Kinase Assay Kit)
Assay type: biochemical
Conditions: 0.1 uM compound, 20 uM ATP
Classification scheme (inhibition at 0.1 µM): lower level = under 20%, middle level = from 20% up to 40%, upper level = 40% and over

Compound: O=c1[nH]c2cccccc-2c1-c1nc2cc([N+](=O)[O-])ccc2[nH]1 [Compound B5]
Label: lower level

Compound: O=c1[nH]c2cccccc-2c1-c1nc2ccccc2[nH]1 [Compound A1, 3-(benzimidazol-2-yl)-1-azaazulen-2-one, reference compound]
Label: middle level

Compound: O=c1[nH]c2cccccc-2c1-c1nc2cc(N3CCCN(Cc4cccnc4)CC3)ccc2[nH]1 [Compound B87]
Label: upper level

Compound: O=c1[nH]c2cccccc-2c1-c1nc2cc(N3CCCNCC3)ccc2n1CCCF [Compound B81]
Label: middle level

Compound: O=c1[nH]c2cccccc-2c1-c1nc2cc(O)ccc2[nH]1 [Compound B8]
Label: upper level

Compound: CN(C)CCCN(C)c1ccc2[nH]c(-c3c4cccccc-4[nH]c3=O)nc2c1 [Compound B21]
Label: lower level

Compound: O=CN1CCCN(c2ccc3[nH]c(-c4c5cccccc-5[nH]c4=O)nc3c2)CC1 [Compound B88]
Label: upper level

Compound: O=c1[nH]c2cccccc-2c1-c1nc2cc(N3CCCN(CCCF)CC3)ccc2[nH]1 [Compound B82]
Label: middle level

Compound: O=C(O)c1ccc2[nH]c(-c3c4cccccc-4[nH]c3=O)nc2c1 [Compound B7]
Label: middle level

Compound: O=c1[nH]c2cccccc-2c1-c1nc2cc(C(F)(F)F)ccc2[nH]1 [Compound B4]
Label: lower level

Please report the category associated with Nc1ccc2[nH]c(-c3c4cccccc-4[nH]c3=O)nc2c1 [Compound B6] , nothing else.
middle level

Same question, O=c1[nH]c2cccccc-2c1-c1nc2cccnc2[nH]1 [Compound B15] this time
lower level

Check O=c1[nH]c2cccccc-2c1-c1nc2cc(N3CCCN(CCF)CC3)ccc2[nH]1 [Compound B80] too.
upper level

Can you handle O=c1[nH]c2cccccc-2c1-c1nc2cc(F)ccc2[nH]1 [Compound B2] next?
lower level

* * *

Target: c-KIT kinase (Homo sapiens, UniProt P10721)
Construct: human c-KIT (Thr544-Val976); GST (N); purchased Cell Signaling Technology HTScan c-KIT Kinase Assay Kit; host or cells: baculovirus expression system
Experiment: c-KIT kinase DELFIA assay (HTScan c-KIT Kinase Assay Kit)
Type: biochemical
Settings: 1 uM compound, 20 uM ATP
inhibition at 1 µM for assorted compounds
# number only, unit % dropped from output

Compound: O=c1[nH]c2cccccc-2c1-c1nc2cc(O)ccc2[nH]1 [Compound B8]
inhibition at 1 µM, %: 75.5

Compound: O=c1[nH]c2cccccc-2c1-c1nc2cc(C(F)(F)F)ccc2[nH]1 [Compound B4]
inhibition at 1 µM, %: 37.6

Compound: O=c1[nH]c2cccccc-2c1-c1nc2cc(N3CCCN(CCCF)CC3)ccc2[nH]1 [Compound B82]
inhibition at 1 µM, %: 91.1

Now consider the entry below.
What inhibition at 1 µM value was documented for this compound, O=c1[nH]c2cccccc-2c1-c1nc2cc(N3CCCN(CCF)CC3)ccc2[nH]1 [Compound B80] ?
82.9

* * *

Target: KDR kinase (Homo sapiens, UniProt P35968)
Construct: human VEGFR-2 (Val789-Val1356); GST (N); purchased Cell Signaling Technology HTScan VEGFR-2 Kinase Assay Kit; host or cells: baculovirus expression system
Sequence (P35968 789-1356): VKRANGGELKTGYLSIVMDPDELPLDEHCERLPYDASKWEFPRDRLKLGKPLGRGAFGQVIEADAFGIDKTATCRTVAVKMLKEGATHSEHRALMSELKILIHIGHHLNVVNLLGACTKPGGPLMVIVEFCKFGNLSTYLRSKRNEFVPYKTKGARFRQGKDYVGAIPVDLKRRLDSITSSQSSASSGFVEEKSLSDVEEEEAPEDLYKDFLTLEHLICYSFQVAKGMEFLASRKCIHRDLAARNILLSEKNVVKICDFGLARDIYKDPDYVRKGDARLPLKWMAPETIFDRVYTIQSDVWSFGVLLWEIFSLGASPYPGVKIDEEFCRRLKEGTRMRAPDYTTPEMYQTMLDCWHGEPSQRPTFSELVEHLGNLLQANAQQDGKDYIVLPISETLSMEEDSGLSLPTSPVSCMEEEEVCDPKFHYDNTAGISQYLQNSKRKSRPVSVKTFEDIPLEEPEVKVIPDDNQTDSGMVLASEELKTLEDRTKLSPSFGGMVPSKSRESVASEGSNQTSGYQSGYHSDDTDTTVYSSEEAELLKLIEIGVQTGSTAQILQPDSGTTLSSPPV
Experiment: KDR kinase DELFIA assay (HTScan VEGFR-2 Kinase Assay Kit)
Format: biochemical
Conditions: 1 uM compound, 20 uM ATP; read-out: Kinases inhibitory activities against KDR kinase, 1 uM
Method: Azaazulene Compounds of this invention were treated for their efficacy in inhibiting activities of FLT-3, c-KIT and KDR kinases by biochemical DELFIA (Dissociation Enhanced Lanthanide FIA) assays according to the procedure described below. The assays were conducted by, Division of Cell Engineering, Biomedical Engineering Research Laboratories, Industrial Technology Research Institute, Bldg. 53, 195, sec. 4, Chung Hsing Rd. Chutung, Hsinchu, Taiwan 310, R.O.C. […]
Below, each of the compounds is paired with its reported inhibition at 1 µM value.

Short answer please: inhibition at 1 µM, KDR kinase (Homo sapiens, UniProt P35968), entry O=c1[nH]c2cccccc-2c1-c1nc2cc(O)ccc2[nH]1
63.8%

Entry to check: O=c1[nH]c2cccccc-2c1-c1cn2ccccc2n1
13.2%

Further, for CCN(CC)CCn1c2cccccc-2c(-c2nc3ccccc3[nH]2)c1=O ?
3.7%

Note, next up: O=c1[nH]c2cccccc-2c1-c1nc2cc(C(F)(F)F)ccc2[nH]1
17.8%

Also need O=c1[nH]c2cccccc-2c1-c1nc2cc(F)ccc2[nH]1 , thanks.
94.5%

Entry O=C(O)c1ccc2[nH]c(-c3c4cccccc-4[nH]c3=O)nc2c1 please
46.1%

What about CN1CCN(c2ccc3[nH]c(-c4c5cccccc-5[nH]c4=O)nc3c2)CC1 ?
96.9%

What would you report for Nc1ccc2[nH]c(-c3c4cccccc-4[nH]c3=O)nc2c1 ?
63.3%

Could you do the same for O=c1[nH]c2cccccc-2c1-c1nc2cc([N+](=O)[O-])ccc2[nH]1 , please?
45.3%

* * *

Target: FLT-3 kinase (Homo sapiens, UniProt P36888)
Construct: human FLT-3 (Arg571-Ser993); GST (N); purchased Cell Signaling Technology HTScan FLT-3 Kinase Assay Kit; host or cells: baculovirus expression system
Sequence (P36888 571-993): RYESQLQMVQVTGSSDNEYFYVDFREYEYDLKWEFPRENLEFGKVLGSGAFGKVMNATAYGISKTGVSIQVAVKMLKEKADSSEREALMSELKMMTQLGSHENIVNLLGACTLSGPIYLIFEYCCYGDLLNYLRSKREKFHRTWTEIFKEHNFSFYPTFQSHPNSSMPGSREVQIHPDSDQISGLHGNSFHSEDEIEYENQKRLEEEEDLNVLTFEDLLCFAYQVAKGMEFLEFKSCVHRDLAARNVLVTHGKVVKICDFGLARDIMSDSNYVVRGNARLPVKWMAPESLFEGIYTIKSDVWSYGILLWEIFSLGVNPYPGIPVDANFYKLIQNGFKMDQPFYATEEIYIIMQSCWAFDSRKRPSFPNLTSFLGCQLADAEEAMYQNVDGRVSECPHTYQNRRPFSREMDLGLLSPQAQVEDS
Assay: FLT-3 kinase DELFIA assay (HTScan FLT-3 Kinase Assay Kit)
Format: biochemical
Conditions: 1 uM compound, 20 uM ATP
Protocol: Azaazulene Compounds of this invention were treated for their efficacy in inhibiting activities of FLT-3, c-KIT and KDR kinases by biochemical DELFIA (Dissociation Enhanced Lanthanide FIA) assays according to the procedure described below. The assays were conducted by, Division of Cell Engineering, Biomedical Engineering Research Laboratories, Industrial Technology Research Institute, Bldg. 53, 195, sec. 4, Chung Hsing Rd. Chutung, Hsinchu, Taiwan 310, R.O.C. […]
Label scheme for inhibition at 1 µM: lower than 70% is NOT MET, 70% and above is MET.

Compound: CN1CCCN(S(=O)(=O)c2ccc3[nH]c(-c4c5cccccc-5[nH]c4=O)nc3c2)CC1
Label: NOT MET

Compound: O=C(Nc1ccc2[nH]c(-c3c4cccccc-4[nH]c3=O)nc2c1)Nc1cc(C(F)(F)F)ccc1F
Label: NOT MET

Compound: O=c1[nH]c2cccccc-2c1-c1nc2cc(N3CCN(c4cnccn4)CC3)ccc2[nH]1
Label: MET

Compound: O=c1[nH]c2cccccc-2c1-c1nc2cc(N3CCCN(CCCF)CC3)ccc2n1CCCF
Label: NOT MET

Compound: CN1CCN(c2c(F)cc3[nH]c(-c4c5cccccc-5[nH]c4=O)nc3c2F)CC1
Label: NOT MET

Compound: CN(C)[C@@H]1CCN(c2ccc3[nH]c(-c4c5cccccc-5[nH]c4=O)nc3c2)C1
Label: MET

Compound: COc1cccc(NC(=O)Nc2ccc3[nH]c(-c4c5cccccc-5[nH]c4=O)nc3c2)c1
Label: NOT MET

Compound: O=C(Nc1cc(C(F)(F)F)cc(C(F)(F)F)c1)Nc1ccc2[nH]c(-c3c4cccccc-4[nH]c3=O)nc2c1
Label: NOT MET

inhibition at 1 µM >= 70% for O=c1[nH]c2cccccc-2c1-c1nc2cc(N3CCN(Cc4ccccc4)CC3)ccc2[nH]1 ?
MET

// query: O=c1[nH]c2cccccc-2c1-c1nc2cc(-n3nccn3)ccc2[nH]1
NOT MET

Now give it for O=c1[nH]c2cccccc-2c1-c1nc2cc(N3CCN(Cc4ccc(Br)o4)CC3)ccc2[nH]1 too.
MET

Moving on to the next compound: O=c1[nH]c2cccccc-2c1-c1cn2ccc(Cl)cc2n1
NOT MET

Can you handle Nc1cc(N2CCN(c3ccc4[nH]c(-c5c6cccccc-6[nH]c5=O)nc4c3)CC2)ccn1 next?
NOT MET

Moving on to the next compound: O=c1[nH]c2cccccc-2c1-c1nc2cc(N3CCCNCC3)ccc2[nH]1
MET
